molecules and their reported Activity
Tested on: von Hippel-Lindau disease tumor suppressor/Epidermal growth factor receptor (Homo sapiens), P00533+P40337 [L858R,T790M]
Test: Protac activity at VHL/EGFR L858R/T790M mutant in human NCI-H1975 cells assessed as induction of EGFR degradation at 100 nM incubated for 24 hrs by Western blot analysis relative to control
Type: cell-based
readout_label: Activity

{"structure_string": "COc1cc(N(C)CCN(C)C)c(NC(=O)/C=C/CN(C)CCN(C)C(=O)CCCCCCC(=O)N[C@H](C(=O)N2C[C@H](O)C[C@H]2C(=O)NCc2ccc(-c3scnc3C)cc2)C(C)(C)C)cc1Nc1nccc(-c2cn(C)c3ccccc23)n1", "readout_label": "Activity", "observed": "< 20%"}
{"structure_string": "COc1cc(N(C)CCN(C)C)c(NC(=O)/C=C/CN(C)CCCCCCCC(=O)N[C@H](C(=O)N2C[C@H](O)C[C@H]2C(=O)NCc2ccc(-c3scnc3C)cc2)C(C)(C)C)cc1Nc1nccc(-c2cn(C)c3ccccc23)n1", "readout_label": "Activity", "observed": "< 20%"}
{"structure_string": "C=CC(=O)Nc1cc(Nc2nccc(-c3cn(C)c4ccccc34)n2)c(OC)cc1N(CCCCCCC(=O)N[C@H](C(=O)N1C[C@H](O)C[C@H]1C(=O)NCc1ccc(-c2scnc2C)cc1)C(C)(C)C)CCN(C)C", "readout_label": "Activity", "observed": "< 20%"}
{"structure_string": "COc1cc(N(C)CCN(C)C)c(NC(=O)/C=C/CN(C)CCN(C)C(=O)CCCCCC(=O)N[C@H](C(=O)N2C[C@H](O)C[C@H]2C(=O)NCc2ccc(-c3scnc3C)cc2)C(C)(C)C)cc1Nc1nccc(-c2cn(C)c3ccccc23)n1", "readout_label": "Activity", "observed": "< 20%"}
{"structure_string": "COc1cc(N(C)CCN(C)C)c(NC(=O)/C=C/CN(C)CCCCCCCCCC(=O)N[C@H](C(=O)N2C[C@H](O)C[C@H]2C(=O)NCc2ccc(-c3scnc3C)cc2)C(C)(C)C)cc1Nc1nccc(-c2cn(C)c3ccccc23)n1", "readout_label": "Activity", "observed": "< 20%"}
{"structure_string": "C=CC(=O)N1CCC[C@H](n2c(Nc3ccccc3)nc3cnc(Nc4ccc(N5CCN(CCCCCCC(=O)N[C@H](C(=O)N6C[C@H](O)C[C@H]6C(=O)NCc6ccc(-c7scnc7C)cc6)C(C)(C)C)CC5)cc4)nc32)C1", "readout_label": "Activity", "observed": "69%"}
{"structure_string": "C=CC(=O)N1CC[C@H](n2c(Nc3ccccc3)nc3cnc(Nc4ccc(N5CCN(CCCCCCC(=O)N[C@H](C(=O)N6C[C@H](O)C[C@H]6C(=O)NCc6ccc(-c7scnc7C)cc6)C(C)(C)C)CC5)cc4)nc32)C1", "readout_label": "Activity", "observed": "79%"}
{"structure_string": "C=CC(=O)N1CCC[C@H](n2c(Nc3ccccc3)nc3cnc(Nc4ccc(N5CCN(CCCCCCCC(=O)N[C@H](C(=O)N6C[C@H](O)C[C@H]6C(=O)NCc6ccc(-c7scnc7C)cc6)C(C)(C)C)CC5)cc4)nc32)C1", "readout_label": "Activity", "observed": "74%"}
{"structure_string": "C=CC(=O)Nc1cc(Nc2nccc(-c3cn(C)c4ccccc34)n2)c(OC)cc1N(CCCCCCC(=O)NCCCCCCC(=O)N[C@H](C(=O)N1C[C@H](O)C[C@H]1C(=O)NCc1ccc(-c2scnc2C)cc1)C(C)(C)C)CCN(C)C", "readout_label": "Activity", "observed": "< 20%"}
